Entry source: paper PMC5517534

- Tested on: rCsUGT75L12 (CsUGT75L12)
- TEST PROTOCOL: UDP release by capillary electrophoresis
- Assay type: biochemical, Camellia sinensis
- CONDITION INFO: 2.5 mM UDP-Glc, 100 mM Tris-HCl pH 7.5, 30 °C
METRIC: Km (µM)

P = O=c1c(O)c(-c2ccc(O)cc2)oc2cc(O)cc(O)c12 [kaempferol]
Q = O=C1C[C@@H](c2ccc(O)cc2)Oc2cc(O)cc(O)c21 [naringenin]
R = O=c1c(-c2ccc(O)cc2)coc2cc(O)cc(O)c12 [genistein]
S = O=c1cc(-c2ccc(O)cc2)oc2cc(O)cc(O)c12 [apigenin]
Can you order these entries from above by Km? Start with the largest number and work down. Thanks in advance for listing the labels in the requested order.
R, Q, P, S
